Tested on: Candida albicans ATCC 10231
Assay: DGHM suspension test, microbicidal activity
Assay type: cell-based
Conditions: CU 800 mg/l; contact time 30 mins.
Record form. Attribute: logarithmic reduction factor. Fill in for each entry.

Readout logarithmic reduction factor for CCCCCCCCC(=O)OCC[N+](C)(C)CCOC(=O)CCCCCCCC.COS(=O)(=O)[O-] , test system Candida albicans ATCC 10231, was >4.66

Bench note, Candida albicans ATCC 10231: entry CCCCCCCC(=O)OCC[N+](C)(C)CCOC(=O)CCCCCCC.COS(=O)(=O)[O-] , its logarithmic reduction factor = >4.35

Lab note: compound CCCCCCCCCC(=O)OCC[N+](C)(CCO)CCOC(=O)CCCCCCCCC.COS(=O)(=O)[O-] tested on Candida albicans ATCC 10231; recorded logarithmic reduction factor was >4.78

Entry CCCCCCCC(=O)OCC[N+](C)(CCOC(=O)CCCCCCC)CCOC(=O)CCCCCCC.COS(=O)(=O)[O-] ; assay system Candida albicans ATCC 10231; logarithmic reduction factor recorded at <4.82

Reading of logarithmic reduction factor for CCCCCCCC(=O)OCC[N+](C)(CCO)CCOC(=O)CCCCCCC.COS(=O)(=O)[O-] with Candida albicans ATCC 10231: >4.16
